- Experimental target: KDM5A (Homo sapiens, UniProt P29375)
- Construct: C-terminal FLAG-tagged KDM5A^1-1090 was purchased from BPS Biosciences; FLAG (C); purchased BPS Biosciences
- Sequence (P29375 1-1090): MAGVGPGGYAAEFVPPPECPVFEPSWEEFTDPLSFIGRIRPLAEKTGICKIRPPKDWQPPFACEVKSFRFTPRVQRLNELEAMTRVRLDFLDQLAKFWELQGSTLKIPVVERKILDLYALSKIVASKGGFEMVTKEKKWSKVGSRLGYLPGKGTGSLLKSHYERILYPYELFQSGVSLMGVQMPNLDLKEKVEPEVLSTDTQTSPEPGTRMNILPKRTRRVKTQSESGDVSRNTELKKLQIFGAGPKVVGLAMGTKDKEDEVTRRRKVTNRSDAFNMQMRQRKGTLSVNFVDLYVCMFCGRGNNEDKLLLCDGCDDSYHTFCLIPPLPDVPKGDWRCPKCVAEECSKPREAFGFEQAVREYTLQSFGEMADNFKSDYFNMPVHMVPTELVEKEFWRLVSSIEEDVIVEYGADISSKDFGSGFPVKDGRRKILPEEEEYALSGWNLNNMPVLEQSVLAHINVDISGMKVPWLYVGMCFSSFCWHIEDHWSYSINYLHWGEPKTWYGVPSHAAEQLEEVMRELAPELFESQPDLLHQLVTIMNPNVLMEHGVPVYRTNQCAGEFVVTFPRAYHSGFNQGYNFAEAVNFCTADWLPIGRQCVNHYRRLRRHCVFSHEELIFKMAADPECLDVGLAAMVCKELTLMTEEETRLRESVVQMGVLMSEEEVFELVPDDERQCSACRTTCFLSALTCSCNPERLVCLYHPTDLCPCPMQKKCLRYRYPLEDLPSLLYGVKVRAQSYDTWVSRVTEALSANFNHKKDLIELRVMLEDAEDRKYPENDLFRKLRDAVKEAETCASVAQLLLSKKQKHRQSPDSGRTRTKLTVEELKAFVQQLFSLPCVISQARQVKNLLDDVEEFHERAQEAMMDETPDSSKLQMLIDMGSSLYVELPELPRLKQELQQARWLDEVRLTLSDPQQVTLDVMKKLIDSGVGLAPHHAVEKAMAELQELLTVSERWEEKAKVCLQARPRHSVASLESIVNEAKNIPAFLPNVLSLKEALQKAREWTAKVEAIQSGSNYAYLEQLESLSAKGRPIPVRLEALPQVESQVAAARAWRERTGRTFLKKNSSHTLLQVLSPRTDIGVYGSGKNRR
- Method summary: KDM5A Assay (SAMDI mass spectrometry demethylase assay)
- Type: biochemical
- Stated conditions: C-terminal FLAG-tagged KDM5A 1-1090; class symbols; read-out: 5A IC50
This section presents compounds with their documented IC50 values.

[[record]]
mol = "O=C(O)c1ccncc1Nc1nn(CCC(F)(F)F)cc1-c1ccncc1"
observed = "100 to 1000 nM"

[[record]]
mol = "Cc1nn(C2CCN(C(=O)c3ccccc3)CC2)cc1Nc1cnccc1C(=O)O"
observed = "100 to 1000 nM"

[[record]]
mol = "O=C(O)c1ccncc1Nc1cc(-c2ccccc2)nn1[C@H]1CC[C@H](O)CC1"
observed = "10000 to 100000 nM"


stdin: IC50 lookup needed for CN1CCC(n2cc(Nc3cnccc3C(=O)O)c(-c3ccccc3)n2)CC1 , thanks.
stdout: 100 to 1000 nM

stdin: IC50 lookup needed for COC(=O)c1ccncc1Nc1cn(C2CCN(C3CCC3)CC2)nc1C , thanks.
stdout: 10000 to 100000 nM
